Molecular target: T1, CT-Ler (Escherichia coli EHEC O157:H7, UniProt Q7DB51 70-116)
T1 chain: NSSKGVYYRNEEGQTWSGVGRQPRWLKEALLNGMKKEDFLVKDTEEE
Test: fluorescence anisotropy; Anisotropy: 40 mM HEPES pH 7.5, 60 mM K-glutamate, 0.01% NaN3, 20 C; EMSA: 15 mM Na-phosphate pH 7.5, 100 mM NaCl, 0.01% NaN3, room temperature; NMR structure:
Conditions: protein: recombinant; tags: N-terminal His6 (pHAT2); blunt
Give measured Kd for each item. Keep answers brief.
I'd appreciate it if you wrote the number followed by its unit.

AATA 10-mer (dsDNA) DNA 1: CGCAATAGCG DNA 2: CGCTATTGCG :: 11500 nM

Each binder below has a recorded value; state its Kd.
1. LeeH G10A (dsDNA) DNA 1: GCGATAATTAATACC DNA 2: GGTATTAATTATCGC
2. LeeH A11G (dsDNA) DNA 1: GCGATAATTGGTACC DNA 2: GGTACCAATTATCGC
3. LeeH A6G (dsDNA) DNA 1: GCGATGATTGATACC DNA 2: GGTATCAATCATCGC
4. AAAA 10-mer (dsDNA) DNA 1: CGCAAAAGCG DNA 2: CGCTTTTGCG
5. LeeH T8C (dsDNA) DNA 1: GCGATAACTGATACC DNA 2: GGTATCAGTTATCGC
6. LeeH (WT) (dsDNA) DNA 1: GCGATAATTGATACC DNA 2: GGTATCAATTATCGC

1: 2310 nM; 2: 1430 nM; 3: 2480 nM; 4: 8070 nM; 5: 1700 nM; 6: 1100 nM
